- System: human platelet rich plasma (PRP)
- ASSAY METHOD TEXT: ADP induced platelet aggregation assay
- APPLIED CONDITIONS: Homo sapiens, Platelet, 5 min, read-out: PA IC50 (μM) @ 10 μM ADP, human PRP, 10 μM ADP, AUC at 5 minute
IC50 values for the compounds below.
Numbers only; they are read as µM.

Req: Entry CC(C)CN1CCC(c2ccc(NC(=O)Nc3ccccc3N3CC(C)(C)c4c(-c5ccc(Cl)cc5)c(F)cc(O)c43)cc2)CC1 has what IC50?
Resp: 0.4

Others:
Req: What does the record list as IC50 for CCC1(CC)CN(c2ccccc2NC(=O)Nc2nc3c(s2)CN(CC(F)(F)F)CC3)c2c(O)ccc(Cl)c21 ?
Resp: 0.63

Req: Could you share which IC50 value was measured for CC1(C)CN(c2ccccc2NC(=O)Nc2ccc(OC(F)(F)F)cc2)c2c(O)ccc(Cl)c21 ?
Resp: 0.87

Req: Dear colleague, I am looking for the recorded IC50 of the following compound: CCC1(CC)CN(c2ccccc2NC(=O)Nc2ccc(C3CCN(CC(C)(C)C)CC3)cc2)c2c(O)ccc(C(F)(F)F)c21
Resp: 0.26

Req: Which IC50 is listed for CC1(C)CN(c2ccccc2NC(=O)Nc2csc(Cl)n2)c2c(O)cc(F)c(-c3nc4ccc(F)cc4s3)c21 ?
Resp: 0.41

Req: Report IC50 for CCC1(CC)CN(c2ccccc2NC(=O)Nc2nc3ccc(C)cc3s2)c2c(O)cccc21 please.
Resp: 0.54

Req: Request the reported IC50 associated with CC1(C)CN(c2ccccc2NC(=O)Nc2nc3ccc(F)cc3s2)c2c(O)cc(F)c(-c3noc(C(F)(F)F)n3)c21
Resp: 0.26
